Numbers sourced from patent US20120270844A1.

target: PAK1 (Homo sapiens); assay: Z'Lyte fluorescence-based (FRET) PAK kinase assay, PAK1; assay type: biochemical; conditions: Table 1 of Example 29 (own compound numbering); 50 μM ATP
Sequence (Q13153 whole entry): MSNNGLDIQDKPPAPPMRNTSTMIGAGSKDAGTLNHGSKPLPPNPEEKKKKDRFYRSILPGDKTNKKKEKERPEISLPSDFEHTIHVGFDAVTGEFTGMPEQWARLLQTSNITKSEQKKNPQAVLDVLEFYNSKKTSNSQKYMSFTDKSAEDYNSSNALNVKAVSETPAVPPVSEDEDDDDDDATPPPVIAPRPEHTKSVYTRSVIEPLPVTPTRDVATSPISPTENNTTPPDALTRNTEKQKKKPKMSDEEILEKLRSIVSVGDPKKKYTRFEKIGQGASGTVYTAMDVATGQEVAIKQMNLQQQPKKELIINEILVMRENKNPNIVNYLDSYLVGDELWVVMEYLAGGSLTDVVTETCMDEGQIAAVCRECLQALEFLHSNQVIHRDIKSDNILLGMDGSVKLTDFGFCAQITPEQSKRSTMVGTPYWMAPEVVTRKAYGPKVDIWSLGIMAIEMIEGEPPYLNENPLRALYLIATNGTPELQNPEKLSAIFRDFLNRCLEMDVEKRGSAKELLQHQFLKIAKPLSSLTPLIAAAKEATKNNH
pIC50: −log10 of the molar value.
Readings of pIC50 for the listed compounds

The cases that follow already have their pIC50 on record.
COMPOUND | SUBJECT_OF_TEST | pIC50
CN1CCN(c2ccc(Nc3nccc(-c4ccc(O)nc4)n3)cc2)CC1 | PAK1 (Homo sapiens) | 5.00 to 6.00
CN1CCN(c2ccc(Nc3ncc4ccc(=O)n([C@@H]5CCCc6ccccc65)c4n3)cc2)CC1 | PAK1 (Homo sapiens) | 5.00 to 6.00
Cc1ccc(C)c(Cn2c(=O)ccc3cnc(Nc4ccc(N5CCN(C)CC5)cc4)nc32)c1 | PAK1 (Homo sapiens) | 5.00 to 6.00
CN1CCN(c2ccc(Nc3ncc4ccc(=O)n(Cc5ccccc5-c5ncno5)c4n3)cc2)CC1 | PAK1 (Homo sapiens) | > 6.00
CN1CCN(c2ccc(Nc3ncc4ccc(=O)n(Cc5c(O)cccc5Cl)c4n3)cc2)CC1 | PAK1 (Homo sapiens) | > 6.00
O=c1ccc2cnc(Nc3ccc(OC4CCCNC4)cc3)nc2n1Cc1ccccc1C(F)(F)F (centres unmarked) | PAK1 (Homo sapiens) | > 6.00
CN1CCN(c2ccc(Nc3ncc4ccc(=O)n(Cc5ccccc5C(F)(F)F)c4n3)cc2)CC1 | PAK1 (Homo sapiens) | > 6.00

Now look at this entry.
*Q* State its pIC50 for this compound: CN1CCN(c2ccc(Nc3ncc4ccc(=O)n(C5CCc6ccccc6C5)c4n3)cc2)CC1 (centres unmarked)
*A* > 6.00
